Numbers sourced from patent US20210070843A1.

Listed here are binders together with their documented IC50 of pseudo virus neutralization H3N2 WN/05.
system.tested: cell surface-expressed H3N2 WN/05 HA trimer (influenza A virus A/Wisconsin/67/2005 (H3N2))
measurement.notes: cell-based or functional assay
observed.property: IC50 of pseudo virus neutralization H3N2 WN/05

1. S01 (antibody, V domains shown) VH: EVQLVESGGGLVQPGGSLRLSCAASGFTINNYGIHWVRQAPGKGLEWVASIWPSGGYTSYADSVKGRFTISADTSKNTAYLQMNSLRAEDTAVYYCARFGLGDYDIMDYWGQGTLVTVSS VL: DIQMTQSPSSLSASVGDRVTITCRASQDVWGYVAWYQQKPGKAPKLLISFPSSLYSGVPSRFSGSGSGTDFTLTISSLQPEDFATYYCQQYYDGPVTFGQGTKVEIKR	> 20 µg/mL
2. P28 (antibody, V domains shown) VH: EVQLVESGGGLVQPGGSLRLSCAASGFTINNSGIHWVRQAPGKGLEWVASIWPSGGYTYYADSVKGRFTISADTSKNTAYLQMNSLRAEDTAVYYCARFNSSYSSGLMDYWGQGTLVTVSS VL: DIQMTQSPSSLSASVGDRVTITCRASQDVWYSVAWYQQKPGKAPKLLIYFATGLYSGVPSRFSGSGSGTDFTLTISSLQPEDFATYYCQQYFNWPVTFGQGTKVEIKR	> 20 µg/mL
3. S11 (antibody, V domains shown) VH: EVQLVESGGGLVQPGGSLRLSCAASGFTIDNGGIHWVRQAPGKGLEWVAWIGPYGGSTSYADSVKGRFTISADTSKNTAYLQMNSLRAEDTAVYYCARFGFGLHDLMDYWGQGTLVTVSS VL: DIQMTQSPSSLSASVGDRVTITCRASQDVYSWVAWYQQKPGKAPKLLIYYSSFLYSGVPSRFSGSGSGTDFTLTISSLQPEDFATYYCQQYYNGPLTFGQGTKVEIKR	> 20 µg/mL
